Just for reference, PubChem BioAssay (NCI) is where these values come from.

test details: NCI Yeast Anticancer Drug Screen. Data for the cln2 rad14 strain (AID 165);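 also: 0% = growth equal to vehicle treated cultures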
protocol conditions: S. cerevisiae cln2 rad14 strain, stronger effect = higher value; at 50.0 µM unless noted
About 79,000 compounds went through this panel and 15% of them were active in at least one assay; those are over-represented in the sample as a whole. Active and inactive are the calls of the source. Rule as the data show it: active = growth inhibition above about 70%; inactive = the rest.
So I've got a bunch of molecules here, and I need their growth inhibition values.

As a guide, the following entries are already answered.
c1ccc(C2Cc3ccccc3C2c2ccccc2)cc1 (stereo not drawn); -17.8% (inactive)
COc1ccc(-c2nc(Sc3c([N+](=O)[O-])ncn3C)n[nH]2)cc1; 25.7% (inactive)
COc1ccc(/C=C(\C(=O)OCC(C)C)c2ccc(OC)c(OC)c2)cc1OC; -6.15% (inactive)
O=C1OC(c2ccccc2)=N/C1=C/C=C/c1ccco1; -9.75% (inactive)
O=[N+]([O-])c1c[nH]c2ncnc(Cl)c12; -6.8% (inactive)

Parameters: items (list). Returns: growth inhibition for each item.
1. ClCCCSSCCCCl
2. CCOc1ccc(OCC)c(NC=O)c1
3. O=Cc1ccc(C=O)o1
4. C=C1CC2C=CC1C2 (stereo not drawn)
5. CC1(C)CC(O)CC(C)(C)N1

(A)
["-7.95% (inactive)", "8.4% (inactive)", "6.3% (inactive)", "0.25% (inactive)", "-2.6% (inactive)"]

Parameters: items (list). Returns: growth inhibition for each item.
1. CCCOC(=O)C1C(c2ccc(OC)cc2)NC(c2ccc(OC)cc2)C(C(=O)OCCC)S1(=O)=O (stereo not drawn)
2. CCCCCCCCCCC1CC(=O)OC1=O (stereo not drawn)

(A)
1. -5% (inactive)
2. 9.45% (inactive)
